Numbers sourced from the supplement of paper PMC12042874.

# Measurement description: amyloid nucleation score (Sup35N fusion, yeast selection) (log enrichment); library NNK2; higher = more nucleation; inactive = no reads after selection;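 further: zero at mode of non-aggregating sequences after 7 days selection at 30°C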
Quick rule for you: amyloid nucleation score at -0.2 or higher means 1, lower means -1.

{"columns": ["Substance", "Classification"],
 "data": [
  ["LSGLIGG", 1],
  ["LNCENELDFKLLSQSNTTMC", 1],
  ["CLEHHNIWVILLVER", -1]
]}

Given VRLVMI , state whether its amyloid nucleation score is at least -0.2.
1

Evaluate SLRLCLDTMEFRVFKNLGRV : amyloid nucleation score at minimum -0.2?
1

Threshold query (amyloid nucleation score >= -0.2) on SKTMSKMNKDQLQHSMLHDP
-1

Does amyloid nucleation score meet or surpass -0.2 for IVKYTGSKIYKFWYDLAGPL ?
-1

Does IKYRFGGLGPRPPNGRRFE have a reported amyloid nucleation score of at least -0.2?
1

Determine whether measured amyloid nucleation score meets or exceeds -0.2 for ISLSLFRNGPIRMAKGSAWM
1

Does amyloid nucleation score meet or surpass -0.2 for HNKVLGSSHHKLRQIPTCMC ?
1
